Measured thermal shift delta Tm, listed per entry for reference.
tested on: LOC_OS01G70970-cb002; assay: thermal shift delta Tm vs DMSO control; higher = stronger stabilization (binding); settings: 12.5 µM; protein concentration 2 µM;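 also: purified Escherichia coli-expressed rice kinase domain construct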
readout.label: thermal shift delta Tm

>  <compound>
C[C@@H]1COCCN1c1cc(=O)n2c(n1)N(Cc1cncc(Cl)c1)[C@H](C(F)(F)F)CC2

>  <data.value>
0.33 °C

$$$$
>  <compound>
CCOc1cn(-c2ccc(F)cc2C)nc1C(=O)Nc1ccc(Oc2ccnc3cc(OC)c(OC)cc23)c(F)c1

>  <data.value>
0.98 °C

$$$$
>  <compound>
COc1ccc(COc2cc3oc(=O)c4cc(C(C)O)ccc4c3cc2OC)cc1 (stereo not given) [Palomid 529 (P529)]

>  <data.value>
0.51 °C

$$$$
>  <compound>
C=CC(=O)Nc1ccc(CN2C(=O)N(c3cc(OC)cc(OC)c3)Cc3cnc(Nc4ccc(N5CCN(C)CC5)cc4)nc32)cc1

>  <data.value>
1.17 °C

$$$$
>  <compound>
CCCCCCCCCCCCCCCCCCOP(=O)([O-])OC1CC[N+](C)(C)CC1 [Perifosine (KRX-0401)]

>  <data.value>
-3.45 °C

$$$$
